- Test Summary: Rat pharmacokinetic studies
- Format: in vivo, male SD rats
- Assay Context: male, SD, in vivo, IV 1 mg/kg
Observable: AUC(0-t) (ng·h/mL)
Numbers only, in ng·h/mL.

QUERY: Data request, read-out AUC(0-t), for CC(C)(C)NC[C@H](O)c1cccc(C(F)(F)F)n1
RESULT: 546

====

Please respond with reported EC50 for every item in the list.
- Assay Target: β2 adrenergic receptor (Homo sapiens (Human), UniProt P07550)
- Sequence (P07550 whole entry, species assumed): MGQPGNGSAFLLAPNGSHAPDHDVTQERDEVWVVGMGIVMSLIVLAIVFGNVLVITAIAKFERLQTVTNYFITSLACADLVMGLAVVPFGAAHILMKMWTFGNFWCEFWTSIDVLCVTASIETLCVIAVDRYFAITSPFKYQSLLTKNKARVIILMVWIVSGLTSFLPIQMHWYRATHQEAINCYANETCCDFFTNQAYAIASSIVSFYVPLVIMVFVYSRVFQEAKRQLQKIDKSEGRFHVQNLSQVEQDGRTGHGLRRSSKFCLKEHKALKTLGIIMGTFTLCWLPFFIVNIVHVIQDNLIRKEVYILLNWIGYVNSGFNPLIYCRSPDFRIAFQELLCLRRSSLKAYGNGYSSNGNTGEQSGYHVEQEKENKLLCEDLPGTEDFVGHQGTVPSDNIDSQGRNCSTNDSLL
- Test Summary: cAMP Gs dynamic HTRF assay, β2 expressing CHO cells
- Type: cell-based
- Assay Context: B2-AR; CHO-K1 (HitHunter); read-out: Average pEC50 [Receptor subtype: B2-AR; Cell type: CHO-K1 (HitHunter)] (converted)

Below, each entry is followed by its recorded EC50 result.
QUERY: Query for β2 adrenergic receptor (Homo sapiens (Human), UniProt P07550): what EC50 does the record show for CC(C)(C)NC[C@H](O)c1cccc(C2CCOCC2)n1 ?
RESULT: < 10 nM

QUERY: Query for β2 adrenergic receptor (Homo sapiens (Human), UniProt P07550): what EC50 does the record show for CC(C)(C)NC[C@H](O)c1cccnc1C1=CCCC1 ?
RESULT: > 1000 nM

QUERY: Query for β2 adrenergic receptor (Homo sapiens (Human), UniProt P07550): what EC50 does the record show for CC(C)c1ncccc1[C@@H](O)CNC(C)(C)C ?
RESULT: > 1000 nM

Your task in this section: give EC50 for each listed record.
1. CC1(NC[C@@H](O)c2cccc(C(F)(F)F)n2)CC1
2. Cc1ncccc1[C@H](O)CNC(C)(C)C

RESULT:
1: > 1000 nM; 2: > 1000 nM

====

- Test Summary: Mouse pharmacokinetic studies
- Assay type: in vivo, male C57BL/6J mice
- Assay Context: male, C57BL/6J, plasma, PO 5 mg/kg, read-out: MRTInf—obs
Observable: MRT inf
Your reply should be a number followed by the unit it is expressed in.

QUERY: Data request, read-out MRT inf, for CC(C)(C)NC[C@H](O)c1cccc(C(F)(F)F)n1
RESULT: 4.08 h

Others:
QUERY: Data request, read-out MRT inf, for CC(C)(C)NC[C@H](O)c1cccc(C#N)n1
RESULT: 2.43 h

====

- Test Summary: Rat CNS exposure measurement (plasma, CSF, brain)
- Type: in vivo, male SD rats
- Assay Context: male, SD, plasma, IV 1 mg/kg, read-out: Concentration, Plasma
Observable: concentration at 1 h (ng/mL)
Give bare numbers, in ng/mL.

QUERY: Data request, read-out concentration at 1 h, for CC(C)(C)NC[C@H](O)c1cccc(C#N)n1
RESULT: 184

====

- Test Summary: Microsomal stability (human)
- Format: in vitro ADME
- Assay Context: liver microsomes 0.5 mg/mL; method gives CLint in μL/min/mg protein
Please respond with reported Microsomal stability, Human for every item in the list.
One number for each entry, in µL/min/mg protein.

QUERY: Data request, read-out Microsomal stability, Human, for CC(C)(C)NC[C@H](O)c1cccc(C#N)n1 [Compound 03-5]
RESULT: 2.96

Could you now look at the following compound, please?
QUERY: Data request, read-out Microsomal stability, Human, for CC(C)(C)NC[C@H](O)c1cccc(C(F)(F)F)n1 [Compound 03-3]
RESULT: 3.49
